B1: HDV Ribozyme (parent)
chain: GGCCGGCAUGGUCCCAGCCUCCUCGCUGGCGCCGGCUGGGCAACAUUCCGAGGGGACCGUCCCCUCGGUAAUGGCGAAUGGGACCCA

Variants of: B1
Assay: self-cleavage, relative activity (ratio to wild type); higher = more cleavage; co-transcriptional
We use 0.2 as the dividing line for self-cleavage: on or above the line is YES, below is NO.

Please tell me: is the variant C4G G6C at or over 0.2 in terms of self-cleavage?
YES

API: above_or_equal(metric=self-cleavage, cutoff=0.2) for item G39A C61A
YES

# bool: self-cleavage of U9G U20C >= 0.2
NO

Is self-cleavage for G73U A87U at or above 0.2?
YES

Determine whether this variant has self-cleavage no lower than 0.2: C30G G67A
NO
